B1: Osa-1-4 twister ribozyme (parent)
chain: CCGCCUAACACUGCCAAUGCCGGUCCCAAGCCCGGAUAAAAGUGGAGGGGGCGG

Variants of: B1
Assay: self-cleavage, relative activity (ratio to wild type); higher = more cleavage; co-transcriptional
Lab note: anything with self-cleavage at or over 0.1 counts as t; the rest go in f.

For orientation, consider the following solved cases.
CCGCCUAAGACUGCCAAUCCCGGUCCCAAGCCCGGAUAAAAGUGGAGGGGGCGG | f
CCGCCUAACACUGCCAAUGCCGGUCCCAAGCCCGGAUGAAAGUGGAGAGGGCGG | t
CCGCCUAACACUGGCAAUGCGGGUCCCAAGCCCGGAUAAAAGUGGAGGGGGCGG | f
CCGCCUAACACUGCCAAUGCCGGACCCAAGCCCGGAUAAAAGUGGAAGGGGCGG | f
CCGCCUAACACUGCCAAAGCAGGUCCCAAGCCCGGAUAAAAGUGGAGGGGGCGG | t

API: above_or_equal(metric=self-cleavage, cutoff=0.1) for item CCGCCUGACACUGCCAAUGCCGGUCCCAAGCCCGGAUAAAAGUGGAUGGGGCGG
f

self-cleavage >= 0.1 for CCGCCUAACACUGCCAAUGCCAGUCCCAAGCCCGGAUAAAAGUGGAGGAGGCGG ?
t

Textbook exercise: given the entry CCGCCUAACAAUGCCAAUGCCGGUCCCACGCCCGGAUAAAAGUGGAGGGGGCGG , state whether its self-cleavage is greater than or equal to 0.1.
f

Please tell me: is the variant CCGCCUAACACGGCCAAUGCCGGACCCAAGCCCGGAUAAAAGUGGAGGGGGCGG at or over 0.1 in terms of self-cleavage?
f

Please indicate if the recorded self-cleavage for CCGCCUAACACUGCCAAUACAGGUCCCAAGCCCGGAUAAAAGUGGAGGGGGCGG meets or exceeds 0.1.
t

Kindly determine if self-cleavage recorded for CCGCCUAACACGGCCAAUGCCGGUCCGAAGCCCGGAUAAAAGUGGAGGGGGCGG is above or exactly 0.1.
f

API: above_or_equal(metric=self-cleavage, cutoff=0.1) for item CCGCCUAACACUGCCAAUGCCGGUCCCAAGCCCGGAUAAACAUGGAGGGGGCGG
t

Decide: is the reported value of self-cleavage for CCGCCUAACACUGCCAAUGCCGGUGCCAAGGCCGGAUAAAAGUGGAGGGGGCGG equal to or greater than 0.1?
t

Determine whether this variant has self-cleavage no lower than 0.1: CCGCCUAACACUGCCAAAGCCGGUCCCAAGCCCGGAUAAAAUUGGAGGGGGCGG
t

Evaluate CCGCCUAACACUGCCACUGCCGGUCCCAAGCCCGGAUAAUAGUGGAGGGGGCGG : self-cleavage at minimum 0.1?
t
